Target: CDK8/CyclinC (Homo sapiens, UniProt P49336)
Construct: purchased ProQinase, Freiburg, Germany
Sequence (P49336 whole entry): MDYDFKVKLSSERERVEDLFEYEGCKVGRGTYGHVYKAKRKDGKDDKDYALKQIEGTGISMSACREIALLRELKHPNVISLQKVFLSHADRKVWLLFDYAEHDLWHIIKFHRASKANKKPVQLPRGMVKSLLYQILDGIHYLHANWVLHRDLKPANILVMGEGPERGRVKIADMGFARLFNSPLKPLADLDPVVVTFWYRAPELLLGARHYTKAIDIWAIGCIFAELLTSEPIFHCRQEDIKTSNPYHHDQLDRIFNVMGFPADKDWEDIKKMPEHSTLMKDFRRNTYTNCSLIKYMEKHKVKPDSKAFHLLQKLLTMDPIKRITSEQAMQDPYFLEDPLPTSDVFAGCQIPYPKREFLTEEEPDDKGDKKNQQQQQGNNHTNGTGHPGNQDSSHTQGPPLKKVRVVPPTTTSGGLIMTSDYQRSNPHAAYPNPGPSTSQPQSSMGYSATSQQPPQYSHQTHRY
Sequence (P24863 whole entry partner): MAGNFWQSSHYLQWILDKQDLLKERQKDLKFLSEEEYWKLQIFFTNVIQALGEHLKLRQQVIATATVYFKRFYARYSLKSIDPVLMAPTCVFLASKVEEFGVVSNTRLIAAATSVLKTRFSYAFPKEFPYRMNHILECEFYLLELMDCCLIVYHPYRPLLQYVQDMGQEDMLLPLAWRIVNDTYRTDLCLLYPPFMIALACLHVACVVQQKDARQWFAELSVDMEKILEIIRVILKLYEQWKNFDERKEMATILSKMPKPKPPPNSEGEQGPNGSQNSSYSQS
Assay: ADP-Glo Kinase Assay, CDK8/CyclinC; note: ATP at apparent Km (53 µM)
Type: biochemical
Conditions: read-out: % inhibition at 1 μM CDK8/CyclinC
For each of the compounds below, state its inhibition at 1 µM.
Give bare numbers, in %.

OCCCNc1nc2c(Br)c(Br)c(Br)c3c2n1CCC3 | 67
CC1CN(c2nc3c(Br)c(Br)c(Br)c4c3n2CCC4)CCN1 (centres unmarked) | 88
COc1c(Br)c2c3c(nc(N4CCNCC4)n3CCC2)c1Br | 61
Cc1c(Br)c(Br)c2c3c1nc(N1CCC(N)CC1)n3CCC2 | 65
Brc1c(Br)c2c3c(nc(NCCCN4CCCC4)n3CCC2)c1Br | 54

Look at each compound and report its inhibition at 1 µM.
1. NCCCNc1nc2c(Br)c(Br)c(Br)c3c2n1CCC3
2. Cc1c(Br)c(Br)c2c3c1nc(N1CCSCC1)n3CCC2
3. Brc1c(Br)c2c3c(nc(N4CCCCC4)n3CCC2)c1Br
4. Brc1c(Br)c2c3c(nc(N[C@H]4CCCNC4)n3CCC2)c1Br

1: 52; 2: 75; 3: 87; 4: 57

For every listed record, write down its inhibition at 1 µM.
1. Cc1c(Br)c(Br)c2c3c1nc(N1CCCNCC1)n3CCC2
2. CN1CCN(c2nc3c(Br)c(Br)c(Br)c4c3n2CCC4)CC1
3. C[C@@H]1CN(c2nc3c(Br)c(Br)c(Br)c4c3n2CCC4)CCN1

1. 61
2. 75
3. 84

---

Target: CDK2/CyclinE (Homo sapiens, UniProt P24941)
Construct: purchased Millipore, Billerica, Mass., USA
Assay: ADP-Glo Kinase Assay, CDK2/CyclinE
Type: biochemical
Conditions: read-out: % inhibition at 1 μM CDK2/CyclinE
Structures can show the parent of a compound that is named as a salt.
Returns true if the recorded inhibition at 1 µM is greater than or equal to 7%, and false otherwise.

Cc1c(Br)c(Br)c2c3c1nc(N1CC[C@@H](N)C1)n3CCC2 | false
Cc1c(Br)c2c3c(nc(N4CCNCC4)n3CCC2)c1Br | false

// switching to the query compound
Hi team, for Cc1c(Br)c(Br)c2c3c1nc(C1CCN(C)CC1)n3CCC2 [Example 7A, hydrochloride] , is the recorded inhibition at 1 µM at or above 7%?
false

---

Target: CDK9/CyclinT (Homo sapiens)
Construct: purchased Proqinase, Freiburg, Germany
Assay: ADP-Glo Kinase Assay, CDK9/CyclinT; note: ATP at apparent Km (26 µM)
Type: biochemical
Conditions: read-out: % inhibition at 1 μM CDK9/CyclinT
Counter-ions that a name gives are not always drawn.
reported_endpoint: inhibition at 1 µM (%)
Numbers only, in %.

C[C@@H]1CN(c2nc3c(Br)c(Br)c(Br)c4c3n2CCC4)CCN1 [Example 3AB] | 47
NCCCNc1nc2c(Br)c(Br)c(Br)c3c2n1CCC3 [Example 1C] | 9
CC1(C)CN(c2nc3c(Br)c(Br)c(Br)c4c3n2CCC4)CCN1 [Example 3N] | 18
OCC1CCCN(c2nc3c(Br)c(Br)c(Br)c4c3n2CCC4)C1 (centres unmarked) [Example 3U] | 24
NCCNc1nc2c(Br)c(Br)c(Br)c3c2n1CCC3 [Example 1A, hydrochloride] | 33

I would be grateful if you could provide inhibition at 1 µM for each of the following entries.
1. Cc1c(Br)c(Br)c2c3c1nc(N1CC[C@@H](N)C1)n3CCC2 [Example 1AK]
2. CN1CCN(c2nc3c(I)c(Br)c(Br)c4c3n2CCC4)CC1 [Example 3AM]
3. Cc1c(Br)c2c3c(nc(N4CCNCC4)n3CCC2)c1Br [Example 1AX]
4. Cc1c(Br)c(Br)c2nc(N3CCNCC3)n3c2c1CCC3 [Example 1S]
5. COC1CCN(c2nc3c(Br)c(Br)c(Br)c4c3n2CCC4)CC1 [Example 4A]
6. Brc1c(Br)c2c3c(nc(NC4CCCCC4)n3CCC2)c1Br [Example 3E]

1. 2
2. 39
3. 7
4. 4
5. 0
6. 3

---

Biological target: CDK8/CyclinC (Homo sapiens)
Construct: purchased ProQinase, Freiburg, Germany
Assay: ADP-Glo Kinase Assay, CDK8/CyclinC; note: ATP at apparent Km (53 µM)
Type: biochemical
Settings: read-out: % inhibition at 1 μM CDK8/CyclinC
reported_endpoint: inhibition at 1 µM
Answer format: number, then unit.

As a guide, the following entries are already answered.
OC1CCN(c2nc3c(Br)c(Br)c(Br)c4c3n2CCC4)CC1 [Example 3A] | 61%
NCCNc1nc2c(I)c(Br)c(Br)c3c2n1CCC3 [Example 1W] | 100%
Cc1c(Br)c2c3c(nc(N4CCNCC4)n3CCC2)c1Br [Example 1AX] | 70%
CCN(CC)c1nc2c(I)c(Br)c(Br)c3c2n1CCC3 [Example 3X] | 92%
NC1CCN(c2nc3c(Br)c(Br)c(Br)c4c3n2CCC4)CC1 [Example 1AG] | 82%
Brc1c(Br)c2c3c(nc(N4CCOCC4)n3CCC2)c1Br [Example 3G] | 80%
N[C@H]1CCN(c2nc3c(Br)c(Br)c(Br)c4c3n2CCC4)C1 [Example 1G] | 96%
Cc1c(Br)c(Br)c2c3c1nc(C1CCNCC1)n3CCC2 [Example 7C] | 83%

List inhibition at 1 µM for every entry below, keeping the order given.
1. CC1CCCN1c1nc2c(I)c(Br)c(Br)c3c2n1CCC3 (stereo not shown) [Example 3S]
2. NC1CCCN(c2nc3c(Br)c(Br)c(Br)c4c3n2CCC4)CC1 (stereo not shown) [Example 1M]

1: 89%; 2: 59%

---

Target: CDK2/CyclinE (Homo sapiens, UniProt P24941)
Construct: purchased Millipore, Billerica, Mass., USA
Assay: ADP-Glo Kinase Assay, CDK2/CyclinE
Assay type: biochemical
Conditions: read-out: % inhibition at 1 μM CDK2/CyclinE
Counter-ions that a name gives are not always drawn.
I'd be grateful if you could share measured inhibition at 1 µM for these entries.

CC1CCCN1c1nc2c(Br)c(Br)c(Br)c3c2n1CCC3 (stereo not drawn) | 0%
NCCNc1nc2c(Br)c(Br)c(Br)c3c2n1CCC3 [Example 1A, hydrochloride] | 0%

Could you now look at the following molecule, please?
Reported inhibition at 1 µM for NCC1CCCN1c1nc2c(Br)c(Br)c(Br)c3c2n1CCC3 (stereo not drawn) : what is it?
0%

---

I'd be grateful if you could share measured log10 IC50 for these entries.
System: HCT116 cells
Assay: MTS viability assay, HCT116
Format: cell-based
Conditions: Homo sapiens, HCT-116, HCT116, 72 hour incubation, read-out: IC50 [μM] HCT116 ED50
Where a name gives a salt, the structure may show the parent alone.
Recorded IC50 (log10, µM)

Each of the following entries comes with a recorded value; kindly state log10 IC50 for each.
1. CN1CCN(c2nc3c(Br)c(Br)c(Br)c4c3n2CCC4)CC1
2. CC1CCc2c(Br)c(Br)c(Br)c3nc(N4CCNCC4)n1c23 (centres unmarked)
3. O=[N+]([O-])c1c(Br)c(Br)c2c3c1nc(N1CCNCC1)n3CCC2
4. Cc1c(Br)c(Br)c2c3c1nc(C1CCN(C)CC1)n3CCC2 [Example 7A, hydrochloride]

1. 0.08
2. -0.70
3. 0.83
4. 0.11

Please go through the list and note log10 IC50 for each compound.
1. NCCNc1nc2c([N+](=O)[O-])c(Br)c(Br)c3c2n1CCC3
2. NCCNc1nc2c(Br)c(Br)c(Br)c3c2n1CCC3 [Example 1A, hydrochloride]

0.20
0.08

Hi there! I need log10 IC50 for each item below, if you can.
1. Brc1c(Br)c2c3c(nc(C4CCNCC4)n3CCC2)c1Br
2. N[C@H]1CCN(c2nc3c(Br)c(Br)c(Br)c4c3n2CCC4)C1
3. Cc1c(Br)c(Br)c2c3c1nc(N1CCNCC1)n3CCC2

[-0.52, -0.15, -0.15]

---

Hi there, I'd appreciate the recorded inhibition at 1 µM for every entry that follows.
Biological target: CDK9/CyclinT (Homo sapiens, UniProt P50750)
Construct: purchased Proqinase, Freiburg, Germany
Sequence (P50750 whole entry): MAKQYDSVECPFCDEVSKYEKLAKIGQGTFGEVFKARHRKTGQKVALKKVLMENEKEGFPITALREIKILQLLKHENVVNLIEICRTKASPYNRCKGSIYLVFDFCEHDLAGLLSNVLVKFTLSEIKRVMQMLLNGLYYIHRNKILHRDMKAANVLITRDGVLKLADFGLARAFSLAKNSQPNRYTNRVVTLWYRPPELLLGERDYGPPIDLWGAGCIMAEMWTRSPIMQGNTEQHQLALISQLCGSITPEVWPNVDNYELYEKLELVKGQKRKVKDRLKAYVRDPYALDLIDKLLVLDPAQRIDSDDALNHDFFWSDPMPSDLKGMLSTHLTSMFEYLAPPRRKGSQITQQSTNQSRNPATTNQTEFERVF
Sequence (O60563 whole entry partner): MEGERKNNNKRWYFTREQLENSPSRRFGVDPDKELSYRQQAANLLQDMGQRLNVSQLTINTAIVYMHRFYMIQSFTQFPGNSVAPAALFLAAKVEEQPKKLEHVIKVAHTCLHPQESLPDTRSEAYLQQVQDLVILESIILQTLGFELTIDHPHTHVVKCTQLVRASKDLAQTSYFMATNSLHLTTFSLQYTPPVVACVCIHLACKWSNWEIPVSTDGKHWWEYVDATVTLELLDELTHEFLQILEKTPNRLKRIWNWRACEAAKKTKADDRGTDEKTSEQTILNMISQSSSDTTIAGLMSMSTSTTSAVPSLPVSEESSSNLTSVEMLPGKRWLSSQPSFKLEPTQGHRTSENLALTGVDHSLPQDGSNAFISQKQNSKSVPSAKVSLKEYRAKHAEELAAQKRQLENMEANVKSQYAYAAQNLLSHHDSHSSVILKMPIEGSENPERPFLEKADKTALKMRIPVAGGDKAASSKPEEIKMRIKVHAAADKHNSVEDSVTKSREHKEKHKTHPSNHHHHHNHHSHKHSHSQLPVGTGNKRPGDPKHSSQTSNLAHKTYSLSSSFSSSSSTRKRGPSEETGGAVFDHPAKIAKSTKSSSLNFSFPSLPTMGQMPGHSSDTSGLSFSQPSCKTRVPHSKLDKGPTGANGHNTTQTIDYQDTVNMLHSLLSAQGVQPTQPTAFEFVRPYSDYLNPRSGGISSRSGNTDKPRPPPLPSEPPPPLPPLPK
Test: ADP-Glo Kinase Assay, CDK9/CyclinT; note: ATP at apparent Km (26 µM)
Type: biochemical
Details: read-out: % inhibition at 1 μM CDK9/CyclinT
Where a name gives a salt, the structure may show the parent alone.
Answers are plain numbers, in %.

The cases that follow already have their inhibition at 1 µM on record.
Brc1c(Br)c2c3c(nc(NC4CCNC4)n3CCC2)c1Br (centres unmarked) [Example 1L] | 9
OC1CCN(c2nc3c(I)c(Br)c(Br)c4c3n2CCC4)CC1 [Example 3AO] | 22
NC1CCN(c2nc3c(Br)c(Br)c(Br)c4c3n2CCC4)CC1 [Example 1AG] | 42
Brc1c(Br)c2c3c(nc(N4CCNCC4)n3CCC2)c1Br [Example 6, maleate] | 55

Moving on to another compound below.
Recorded inhibition at 1 µM of N[C@@H]1CCN(c2nc3c(Br)c(Br)c(Br)c4c3n2CCC4)C1 [Example 1AE] , please.
61

src = patent US9745299B2
